Taken from patent US20250206809A1.

# MEASURED_TARGET: CS14 on an ETEC strain (enterotoxigenic Escherichia coli)
# PROTOCOL_DETAILS: cell-based or functional assay
Please provide measured MRHA IC100 for the entries that follow.
Report field: quantity (unit follows the number).

Problem: Return the recorded MRHA IC100 value; entry: VHH antibody 1H4 (monomeric nanobody) (VHH) VHH: EVQLVESGGGLVQAGGSLRLSCAASSRTFNHYNIGWFRQAPGKEREFAAAITWNGRSTLYADSVKGRFTISRDNAKNTVYLQMNSLKPEDTAVYYCATLTTWEHKWEYNSQGQGTQVTVSS
Solution: 100 µg/mL

Problem: Return the recorded MRHA IC100 value; entry: VHH antibody 2R23 (monomeric nanobody) (VHH, Yeast-library clone, expressed in the E. coli periplasm) VHH: QVQLQESGGGLVQAGGSLRLSCAASGYIFWSYGYMGWYRQAPGKERELVATISRGGTTNYADSVKGRFTISRDNAKNTVYLQMNSLKPEDTAVYYCAAGRYAFGYFKYWGQGTQVTVSS
Solution: 25 µg/mL

Problem: Return the recorded MRHA IC100 value; entry: VHH antibody 2R215 (monomeric nanobody) (VHH, Yeast-library clone, expressed in the E. coli periplasm and purified by Ni-NTA; also called monomeric 2R215; monomeric VHH 2R215) VHH: QVQLQESGGGLVQAGGSLRLSCAASGNIFQDAEMGWYRQAPGKEREFVATIAYGGNTNYADSVKGRFTISRDNAKNTVYLQMNSLKPEDTAVYYCAVYTGVYYDRTTGGYVAFEYWGQGTQVTVSS
Solution: 200 µg/mL

Problem: Return the recorded MRHA IC100 value; entry: VHH antibody 1D7 (monomeric nanobody) (VHH) VHH: EVQLVESGGGLVQAGGSLTLSCAASERTFSYYVMAWFRQAPGKEREFVAGISMSGDSTKYADSVKGRFTISRDNAENTGYLQMNGLKPEDTAVYYCAADRDIRGNFRSWGRGTQVTVSS
Solution: 100 µg/mL
